Can you tell me EC50 for the items I'm about to list?
target: T1, VP1 pentamer of BKV genotype IV (recombinant) (BK virus genotype IV, UniProt P14996 30-300); assay: ELISA, coated VP1 pentamer
T1 construct: also called GIV; VP1 BKV subtype IV; not shown: N-terminal His-tag of pESPRIT002; C-terminal biotin acceptor peptide (BAP) of pESPRIT002
Answers are plain numbers, in µg/mL.

Example binders with recorded EC50:
BINDER: antibody C10P7 (antibody, V domains shown) VH: QVQLVQSGSEVKKPGTSVKVSCKASGETYVGHSISWVRQAPGAGLEWMGWISLHNGNVKYAQKLQGRVTMTTDTSTITAYMELRNLTSDDTAVYYCARVPMKIYGVIVFGEYYYDQLDVWGQGTTVTVSS VL: QSALTQPPSASGSPGQSVTISCTGTGSDVGGYNYVSWYQQHPGKAPKLMIYEVSKRPSGVPDRFSGSKSGNTASLTVSGLQAEDEADYYCSSYAGSKVVFGGGTKLTVL
RESULT TYPE: EC50
UNIT TEXT: µg/mL
MEASUREMENT: 18
--
BINDER: antibody D3P7 (antibody, V domains shown) VH: QVQLVQSGSELKKPGASVRVSCKASAYTFTNSAINWVRQAPGQGLEWTGWINTNTGNPAYAQGFRGRFVFSLDTSVSEAYLQITNLKAEDTATYYCAVPYNFGGDHNSFHFFGMDVWGQGTTVTVSS VL: QSALTQPASVSGSPGQSITISCTGSSSDVGTYNFVSWYQQQPAKAPKVMIYEGTKRPSGISDRFSGSKSGNTASLTISGLQAEDEADYYCSSYAGGNAFVFGTGTRVSVL
RESULT TYPE: EC50
UNIT TEXT: µg/mL
MEASUREMENT: 0.3
--
BINDER: antibody D7P6 (antibody, V domains shown) VH: EVQLLESGGGLVQPGGSLRLSCAASGFPFSSYAMSWVRQAPGKGLEWVSGITGSASGTYYADSVKGRFTISRDNSKNTLYLRMNSLRAEDTAVYYCAKEGAYSYDYWYFDLWGRGTLVTVSS VL: EIVLTQSPGTLSLSPGERATLSCRASQSVSGSYLAWYQQKPGQTPRLLIYGASSRATGIPDRFSGSGSGTDFTLTINRLDPEDFGVYYCQQYGSLVTFGGGSKVEIK
RESULT TYPE: EC50
UNIT TEXT: µg/mL
MEASUREMENT: 70

List reported EC50 for each of these binders:
1. antibody G11P1 (antibody, V domains shown) VH: EVQLVESGGGLVQPGGSLRLSCAASGFTFRSYSMDWVRQAPGKGLEWVSYISGSSNQKYYTDSVRGRFTISRDNAKNSLFLQMNSLRAEDSAVYYCAREDDILTPLYGMDVWGPGTTVTVSS VL: EIVLTQSPDTLSLSPGARATLSCRASQSVRSNYLAWYQQKPGQAPRLLIYGASSRATAIPDRFSGSGSGTDFTLTITRLEPEDFAVYYCHQYASSPRTFGQGTKVEIK
2. antibody F3P6 (antibody, V domains shown) VH: QVQLVQSGAEVKKPGASVKVSCKASGYTFTTHIIHWVRQAPGQRLEWMGWINAGNGNTHYSEKFQGRVTLTRDTSASTAYMELSSLRSEDTAIYYCAREDQWLGRSPLEYWGQGTLVTVSS VL: EIVLTQSPGTLSLSPGERATLSCRASQSVSSSYLAWYQHKPGQAPRLLIYGASSRATGIPDRFSGSGSGTDFTLTISRLEPEDFAVYYCQQYGNSYPWTFGQGTKVEIK
3. antibody B8P7 (antibody, V domains shown) VH: QVQLQESGPGLVRPSETLSLTCTVSGGSISPYYWNWIRQPPGKGLEWIGYIYYSGNTKYNPSLKSRVTISVDTSKNQFSLKLSSVSAADTAVYYCARDSCSGTCYLGDNWFDPWGQGTLVTVSS VL: QSVLTQPPSVSGAPGQRVTISCTGSSSNIGANNDVHWYQHLPGTAPKLLIYGNNHRPSGVPDRFSGSKSGTSASLAITGLQAEDEADYYCQSYDSSLSTSKVFGGGTKLTVL
4. antibody E6P5 (antibody, V domains shown) VH: EVQLVESGGGLVQPGRSLRLSCSASGFTFDDHAMHWVRQAPGKGLEWVAGINWNSASIVYADSVKGRFTISRDNVKNSLYLQMNSLRADDTALYYCAKDFGLWFGESRGIDAWGRGTTVTVSS VL: DIVMTQSPLSLPVTPGEPASISCRPSQSLLHSNGYNYLNWYLQKPGRSPQLLIYLGSNRASGVPDRFSGSGSGTDFTLKISRVEAEDVGIYYCMQALQTPITFGQGTRLEIK
5. antibody C6P8 (antibody, V domains shown) VH: EVQLVESGGGLVQPGGSLKLSCAASGFTFSGSEIHWVRQASGKGLEWIGRVRSRANRHATGYSESVKGRFTISRDDSKNTASLQLNSLKIEDTAVYYCTGVRGVISRYFAMDVWGQGTTVTVSS VL: SYVLTQTPSVSVAPGQTARITCGGNNIGSNSVHWYQQKPGQAPILVVYDDSERPSGIPERFSGSNSGNTATLTISRVEGGDEADYQCQVWDRRGDLLVFGGGTKLTVL
6. antibody E2P6 (antibody, V domains shown) VH: EVQLVESGGGLIQPGGSLRLSCAASGFTVSTNCMSWVRQAPGTGLEWVSVIYSGGTTYYADSVKGRFTISRDNSRNTLYLQMNGLRAEDTAVYYCARSVDTYDIYALDVWGQGTTVTVSS VL: DIQMTQSPSTLSASVGDRVTITCRASQSISRWLAWYQQKPGKAPKLLIYKASGLHSGAPSRFSGSGSGTEFTLTISGLQPDDFATYFCQQYNSYPWTFGQGTKVEIK

1. 0.035
2. 1.25
3. 3
4. 3
5. 4
6. 0.6

Note to self: EC50 recorded for antibody E5P6 (antibody, V domains shown) VH: EVQLVESGGGVVQPGRSLRLSCAASGFIFNNHGMHWVRQAPGKGLEWVAGISYDGKKEYYIGSVKGRFTISRDNSRNTLYLHMNGLRPEDTAVYYCAKEAYGSGSPCDYWGQGTLVTVSS VL: EIVLTQSPGTLSLSPGERATLSCRASQRVSSNYLAWYQQKPGQAPRLLIYGASSRATGIPDRFSGSGSGTDFTLTISRLEPEDFAVYYCQQYGTSPRSFGRGTKLEIK was 5
